These data points were gathered from the DeepSol protein solubility set.

PROCEDURE_TEXT: soluble on expression in E. coli; label from the status in PepcDB or PDB records

>  <SEQUENCE_TEXT>
MGPAPRILELFYDVLSPYSWLGFEVLCRYQHLWNIKLQLRPTLIAGIMKDSGNQPPAMVPRKGQYIFKEIPLLKQFFQVPLNIPKDFFGETVKKGSINAMRFLTTVSMEQPEMLEKVSREIWMRVWSRDEDITEYQSILAAAVKAGMSTAQAQHFLEKISTQQVKNKLIENTDAACKYGAFGLPTTVAHVDGKTYMLFGSDRLELLAYLLGEKWMGPVPPTANARL

>  <soluble on expression in E. coli>
soluble

$$$$
>  <SEQUENCE_TEXT>
MSLWPQMQYRQLQLAREKLLERLARKRNSTVITLIHRQESIGLFGIPVYRFISIEDSEEVLRAIRMAPKDKPIDLIIHTPGGLVLAATQIAKALKDHPAETRVIVPHYAMSGGTLIALAADKIIMDPHAVLGPVDPQLGQYPAPSIVRAVEKKGVDKVDDQTLILADVAEKAIRQVRDFIFNLLKDKYGEEKAKELAQVLTEGRWTHDYPITVEEAKKLGLNVSTDVPEEVYALMELYKQPIRQRGTVEFVPYPMKQEGKHEGHHHHHH

>  <soluble on expression in E. coli>
soluble

$$$$
